The measured values listed here are drawn from ChEMBL document CHEMBL3739344.

molecular target: Ionotropic glutamate receptor NMDA 1/2D (Rattus norvegicus) (UniProt P35439+Q62645); experiment: Negative allosteric modulation of rat GluN1a/GluN2D receptor expressed in Xenopus laevis oocytes assessed as suppression of 100 uM glutamate and 30 uM glycine at 30 uM glycine induced-current by voltage clamp recording method; format: cell-based
quantity: inhibition

The compound listed as CCOC(=O)c1c(NC(=O)CC2S/C(=N\C)N(C)C2=O)sc2c1CCCC2 (racemic) has a reported inhibition of < 25%

So for CCOC(=O)c1c(NC(=O)CC2SC(=O)NC2=O)sc2c1CCC2 (racemic) , the logged inhibition turned out to be < 25%

Looking up N=C1NC(=O)C(CC(=O)Nc2sc3c(c2C(=O)O)CCCC3)S1 (racemic) , I see its inhibition listed as < 25%

# inhibition of CCOC(=O)c1c(NC(=O)CC2NC(=O)NC2=O)sc2c1CCCC2 (racemic) = < 25%

Briefly, inhibition measured for COC(=O)c1c(NC(=O)CC2SC(N)=NC2=O)sc2c1CCC(C(C)(C)C)C2 (racemic) : < 25%

The compound CCOC(=O)c1c(NC(=O)CC2SC(=O)NC2=O)sc2c1CCCC2 (racemic) showed inhibition equal to < 25%
